experiment: Approximate solubility estimates (solvent incremental addition, visual observation); format: physicochemical; details: acetic acid (AcOH), organic solvent or mixture, thermodynamic from solid, AcOH, ambient; read-out: Solubility
quantityName: solubility

Assign solubility to the following record: CN(C)C(=O)Nc1cc(Oc2cnc3nc(Nc4cc(C(F)(F)F)cn(C)c4=O)n(C)c3c2C#N)ccn1 [Compound 1 Lot I]
> 59 mg/mL

----------
assay: physchem; conditions: water
quantityName: solubility

Hello, please tell me recorded solubility for this one: CN(C)C(=O)Nc1cc(Oc2cnc3nc(Nc4cc(C(F)(F)F)cn(C)c4=O)n(C)c3c2C#N)ccn1 [Form F]
< 1000 µg/mL

These data points were gathered from patent US20240368157A1.
